# System: DU-145 prostate
# assay.details: NCI-60 one-dose screen, 48 h (100 = growth as untreated, 0 = no growth, -100 = all killed)
# conditions: 10 µM unless noted
The panel holds about 83,000 compounds, 20% with a hit somewhere; the sample as a whole holds those more often.
Attribute: growth
Numbers only; they are read as %.

Known growth results, listed for orientation:
• C#CCN1C(=O)/C(=c2\sc3n(c2=O)NC2C(N=3)N(CC)C(=O)N2CC)c2ccccc21 (centres undefined) = 41
• COc1ncc(-c2ccc3ncnc(Nc4cccc(Cl)c4)c3c2)cc1N(S(C)(=O)=O)S(C)(=O)=O = 54.8
• c1ccc(CCn2nnc3c(Nc4ccc(N5CCOCC5)cc4)ncnc32)cc1 = 105
• COC(=O)C(CC(=O)c1ccc(-c2ccccc2)cc1)c1ccccc1 (centres undefined) = 72.7
• O=c1cc(C2NCCc3c2[nH]c2ccccc32)c2c(ccc3ccccc32)o1 (centres undefined) = 59.6

I'd like to know its growth. The compound in question is CCN(Cc1ccc(CN(CC)C(=O)C(Br)Br)cc1)C(=O)C(Br)Br
14.1

Entry COc1ccc(/C=C/c2nc(N3CCOCC3)c3nc(Cl)c(Cl)cc3n2)cc1OC please
101

What do you have for NC(=O)c1c(NC(=O)c2ccc(OCC3CCCO3)cc2)sc2c1CCCC2 (centres undefined) ?
105

Let us now turn to O=C(Nc1cc(C(F)(F)F)cc(C(F)(F)F)c1)Nc1ccc(OCc2nnc(-c3ccc(Cl)cc3)o2)c(F)c1
23.8

---

# System: COLO 205 colon
# assay.details: NCI-60 one-dose screen, 48 h (100 = growth as untreated, 0 = no growth, -100 = all killed)
# conditions: 10 µM unless noted
About 83,000 compounds went through this panel and 20% of them were active in at least one assay; those are over-represented in the sample as a whole.
This section presents compounds with their documented growth values.
Report as a plain number; the unit % is understood.

Example entries begin here.
• CCCCCCCCCCCCNC(=S)N/N=C/c1ccc(Cl)c(Cl)c1 = 106
• NCCSC(c1ccccc1)(c1ccccc1)c1ccccc1 = -42.8
• CCCCCCCCCCCCCCCCC(Br)C(=O)O (stereo unspecified) = 119
• CC(=O)N1Cc2ccccc2C(C)Cc2cc(Cl)ccc21 (stereo unspecified) = 117
• CC1CCc2c(sc(NC(=O)CSc3nnc4ccccn34)c2C(N)=O)C1 (stereo unspecified) = 126
• O=C(N/N=C/c1c(Cl)cccc1Cl)c1ccccc1Nc1ccnc(C(F)(F)F)c1 = 94.7
• O=c1c2cccc3c(Nc4ccc(F)cc4)ccc(c32)c2nc3ccccc3n12 = 84.5
• COc1ccc(-c2nnc(COc3ccc(NC(=O)Nc4ccc(Cl)c(C(F)(F)F)c4)cc3F)o2)cc1 = -7.23
• CCN(C(=O)c1cc2ccccc2[nH]1)[C@H]1CCC[C@@H](NCc2ccc(OC)cc2)C1 = 87.6
• O=C1N=C(c2c(-c3[nH]c(=O)c4ccc(Br)cc4c3O)c(O)c3ccccc3c2O)C(=O)c2cc(Br)ccc21 = 73.1

growth for CC1=CNNc2c3ncnc-3ncn21 ?
106

Likewise for COc1ccc(-c2nc3sccn3c2-c2ccnc(NCCCNS(=O)(=O)c3ccc4ccccc4c3)n2)cc1 ?
57.6

Similarly, COc1ccc(C2=NN(c3ccc(S(N)(=O)=O)cc3)C(c3cn(-c4ccccc4)nc3-c3ccc(Cl)cc3)C2)cc1 (stereo unspecified) ?
93.7

Please answer likewise for CCCC1OC(c2ccc(C(C)C)cc2)OCC1CC (stereo unspecified)
99.6
